- tgt: T1, natriuretic peptide receptor-B (human)
- T1 chain: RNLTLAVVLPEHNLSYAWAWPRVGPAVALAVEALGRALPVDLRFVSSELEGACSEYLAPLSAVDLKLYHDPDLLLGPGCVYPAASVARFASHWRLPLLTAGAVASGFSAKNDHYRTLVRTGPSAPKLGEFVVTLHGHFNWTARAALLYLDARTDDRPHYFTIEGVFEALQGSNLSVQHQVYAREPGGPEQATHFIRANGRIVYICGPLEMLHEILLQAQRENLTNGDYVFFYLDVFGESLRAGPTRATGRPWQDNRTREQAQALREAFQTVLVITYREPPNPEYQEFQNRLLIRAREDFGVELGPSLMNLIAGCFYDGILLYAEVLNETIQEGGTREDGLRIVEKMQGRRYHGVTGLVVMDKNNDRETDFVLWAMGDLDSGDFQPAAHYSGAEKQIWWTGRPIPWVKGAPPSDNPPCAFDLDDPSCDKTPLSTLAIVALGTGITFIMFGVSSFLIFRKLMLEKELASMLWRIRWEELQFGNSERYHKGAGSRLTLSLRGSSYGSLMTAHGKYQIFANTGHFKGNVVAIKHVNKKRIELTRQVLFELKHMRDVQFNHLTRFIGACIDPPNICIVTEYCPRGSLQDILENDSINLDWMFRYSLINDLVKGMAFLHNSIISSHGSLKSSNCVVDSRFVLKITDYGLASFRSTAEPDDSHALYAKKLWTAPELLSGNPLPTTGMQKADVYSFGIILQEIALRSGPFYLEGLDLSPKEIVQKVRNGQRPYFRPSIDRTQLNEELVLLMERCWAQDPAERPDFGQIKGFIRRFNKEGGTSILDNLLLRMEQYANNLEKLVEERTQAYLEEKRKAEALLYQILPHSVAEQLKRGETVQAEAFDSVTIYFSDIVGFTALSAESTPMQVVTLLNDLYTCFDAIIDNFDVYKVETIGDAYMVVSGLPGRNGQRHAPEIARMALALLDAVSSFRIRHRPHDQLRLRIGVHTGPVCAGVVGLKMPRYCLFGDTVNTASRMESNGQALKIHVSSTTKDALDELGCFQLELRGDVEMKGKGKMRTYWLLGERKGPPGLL
- measurementNotes: cell-based or functional assay
Numbered stars: 1 amine (or outer) side, 2 acyl side, 3 side chain; on linkers, the order of the positions; unused ones are H or OH. Square brackets hold non-standard residues; d marks the D form. Primed or numbered codes have the meaning given here. Ends that are not written are not given here. * marks the point of attachment. 1860″ = (1R,2R)-2-methylcyclohexanamine, C[C@@H]1CCCC[C@H]1N*; Pro(trans-4-NH2) = O=C([C@@H]1C[C@@H](N[*:3])CN1[*:1])[*:2]; Sni = (S)-nipecotic acid, O=C([C@H]1CCCN([*:1])C1)[*:2]; Hyp = O=C(O)[C@@H]1C[C@@H](O)CN1; NMeL = CN[C@@H](CC(C)C)C(=O)O; AR‑201‑68 = not defined here; dOrn = NCCC[C@@H](N)C(=O)O; Octanoyl = CCCCCCCC(=O)*; Occ = octanoic acid
quantity: EC50 group, cGMP in GTM-3 cells

• Octanoyl-[Sni]F[dOrn]L[Pro(trans-4-NH2)][NMeL]DRI-NH2 [JAL-1318] = ≤ 1000 nM
• Octanoyl-AFGLKLDR-{1860″} (not fully specified (some residues); printed as Occ-ala-Phe-Gly-Leu-Lys-Leu-Asp-Arg-1860) [JAL-0839] = ≤ 5000 nM
• [AR‑201‑68]F[dL]L[Hyp][NMeL]DRI-NH2 (reading uncertain; also: printed as (AR-201-68)-Phe-leu-Leu-Hyp-Nml-Asp-Arg-Ile-NH2) [JAL-1380] = ≤ 1000 nM
• [Occ]AFTLPLDRI-NH2 (not fully specified (residues 2, 4); printed as Occ-ala-Phe-thr-Leu-Pro-Leu-Asp-Arg-Ile-NH2) [JAL-1011] = ≤ 5000 nM
